All values here come from paper PMC3329556.

substrate: NC(=O)c1ccc[n+]([C@@H]2O[C@H](COP(=O)(O)OP(=O)(O)OC[C@H]3O[C@@H](n4cnc5c(N)ncnc54)[C@H](O)[C@@H]3O)[C@@H](O)[C@H]2O)c1; test: radiometric HPLC assay, initial rates, Michaelis-Menten fit; type: biochemical, Bos taurus; details: 10 mM potassium phosphate pH 7.4, 37°C, 14C-labelled NAD+ tracer
Kindly state Km for each of the entries shown.
Give bare numbers, in µM.

protein	unit.text	Km
bCD38 (bovine CD38/NAD+glycohydrolase) (Bos taurus) (protein, soluble ecto-domain residues 32-278 (first 31 residues removed), alpha-factor secretion signal, Pichia pastoris GS115 or X33, mono-N-glycosylated at Asn201, back-to-back homodimer in crystal) YKWHYSGLNRWHGAGSTADFQKIIQERCDTYTQTIRPGSRSRNCQAIRQAFMSAFISKDPCKATKEDYNSLINLAPPTVPCGQQVFWSKTKELAHEYAKRRRLMTLEDTLLGYLADGLRWCGEPGSSDLNIWSCPDWRKDCRTNYLSVFWEVLSERFAESACNTVRVVLNGSLENAFDSMSIFGRVEAPNLRPQVELEAWLVHDTGKPPSDSCSGSSIRKLKSILDGRNVKFRCMDNLSRDQFLQRS	µM	17.1
bCD38 (bovine CD38/NAD+glycohydrolase) (Bos taurus; S185A) (protein, soluble ecto-domain residues 32-278 (first 31 residues removed), alpha-factor secretion signal, Pichia pastoris GS115 or X33, mono-N-glycosylated at Asn201, back-to-back homodimer in crystal) YKWHYSGLNRWHGAGSTADFQKIIQERCDTYTQTIRPGSRSRNCQAIRQAFMSAFISKDPCKATKEDYNSLINLAPPTVPCGQQVFWSKTKELAHEYAKRRRLMTLEDTLLGYLADGLRWCGEPGSSDLNIWSCPDWRKDCRTNYLSVFWEVLAERFAESACNTVRVVLNGSLENAFDSMSIFGRVEAPNLRPQVELEAWLVHDTGKPPSDSCSGSSIRKLKSILDGRNVKFRCMDNLSRDQFLQRS	µM	18.7
bCD38 (bovine CD38/NAD+glycohydrolase) (Bos taurus; W168A) (protein, soluble ecto-domain residues 32-278 (first 31 residues removed), alpha-factor secretion signal, Pichia pastoris GS115 or X33, mono-N-glycosylated at Asn201, back-to-back homodimer in crystal) YKWHYSGLNRWHGAGSTADFQKIIQERCDTYTQTIRPGSRSRNCQAIRQAFMSAFISKDPCKATKEDYNSLINLAPPTVPCGQQVFWSKTKELAHEYAKRRRLMTLEDTLLGYLADGLRWCGEPGSSDLNIWSCPDARKDCRTNYLSVFWEVLSERFAESACNTVRVVLNGSLENAFDSMSIFGRVEAPNLRPQVELEAWLVHDTGKPPSDSCSGSSIRKLKSILDGRNVKFRCMDNLSRDQFLQRS	µM	24.6
bCD38 (bovine CD38/NAD+glycohydrolase) (Bos taurus; E218Q) (protein, soluble ecto-domain residues 32-278 (first 31 residues removed), alpha-factor secretion signal, Pichia pastoris GS115 or X33, mono-N-glycosylated at Asn201, back-to-back homodimer in crystal) YKWHYSGLNRWHGAGSTADFQKIIQERCDTYTQTIRPGSRSRNCQAIRQAFMSAFISKDPCKATKEDYNSLINLAPPTVPCGQQVFWSKTKELAHEYAKRRRLMTLEDTLLGYLADGLRWCGEPGSSDLNIWSCPDWRKDCRTNYLSVFWEVLSERFAESACNTVRVVLNGSLENAFDSMSIFGRVQAPNLRPQVELEAWLVHDTGKPPSDSCSGSSIRKLKSILDGRNVKFRCMDNLSRDQFLQRS	µM	24.7
bCD38 (bovine CD38/NAD+glycohydrolase) (Bos taurus; R216A) (protein, soluble ecto-domain residues 32-278 (first 31 residues removed), alpha-factor secretion signal, Pichia pastoris GS115 or X33, mono-N-glycosylated at Asn201, back-to-back homodimer in crystal) YKWHYSGLNRWHGAGSTADFQKIIQERCDTYTQTIRPGSRSRNCQAIRQAFMSAFISKDPCKATKEDYNSLINLAPPTVPCGQQVFWSKTKELAHEYAKRRRLMTLEDTLLGYLADGLRWCGEPGSSDLNIWSCPDWRKDCRTNYLSVFWEVLSERFAESACNTVRVVLNGSLENAFDSMSIFGAVEAPNLRPQVELEAWLVHDTGKPPSDSCSGSSIRKLKSILDGRNVKFRCMDNLSRDQFLQRS	µM	22.9

Query block: // query Km value for entry bCD38 (bovine CD38/NAD+glycohydrolase) (Bos taurus; K120A) (protein, soluble ecto-domain residues 32-278 (first 31 residues removed), alpha-factor secretion signal, Pichia pastoris GS115 or X33, mono-N-glycosylated at Asn201, back-to-back homodimer in crystal) YKWHYSGLNRWHGAGSTADFQKIIQERCDTYTQTIRPGSRSRNCQAIRQAFMSAFISKDPCKATKEDYNSLINLAPPTVPCGQQVFWSATKELAHEYAKRRRLMTLEDTLLGYLADGLRWCGEPGSSDLNIWSCPDWRKDCRTNYLSVFWEVLSERFAESACNTVRVVLNGSLENAFDSMSIFGRVEAPNLRPQVELEAWLVHDTGKPPSDSCSGSSIRKLKSILDGRNVKFRCMDNLSRDQFLQRS
Result block: 27.7
